Origin of measurements: patent US11840546B2

tested.target: ALK2 (aa 147-end) (Homo sapiens (Human))
Sequence (Q04771 147-509 limits assumed): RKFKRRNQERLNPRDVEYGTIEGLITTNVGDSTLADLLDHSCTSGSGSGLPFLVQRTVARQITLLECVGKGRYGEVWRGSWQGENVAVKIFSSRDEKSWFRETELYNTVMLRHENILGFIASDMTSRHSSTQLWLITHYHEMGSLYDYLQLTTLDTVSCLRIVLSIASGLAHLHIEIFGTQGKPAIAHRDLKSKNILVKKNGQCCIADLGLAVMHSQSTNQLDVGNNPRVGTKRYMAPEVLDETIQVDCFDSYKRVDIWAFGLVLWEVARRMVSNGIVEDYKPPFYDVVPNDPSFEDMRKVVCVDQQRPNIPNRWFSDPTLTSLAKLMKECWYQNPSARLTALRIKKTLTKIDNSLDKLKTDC
pIC50: −log10 of the molar value.
readout.type: pIC50

Give me measured pIC50, please, for this compound: Cc1cnn(-c2ccc3c(-c4cnc5cc(-c6ccc([C@]78C[C@H]7CN(C7CCOCC7)C8)cc6)c(C)nn45)ccnc3n2)n1 (stereo in doubt) [Example 4]
≥ 9.00
